Data origin, for the record: paper PMC6095626

Test system: G. lamblia trophozoites (luciferase expressing, WBC6)
Assay: microbe, parasite or virus in culture
Assay type: cell-based, Giardia lamblia
Settings: initial Pathogen Box screen, single concentration 16 µM, inhibition compared to DMSO wells
Classify as follows. Reported Giardia (16 uM) Mean % inhibition greater than or equal to 50%: yes. Reported Giardia (16 uM) Mean % inhibition below: no.

Nc1cccnc1Nc1ccc(Cl)cc1: no
CC(=O)OCC1OC([S-])C(OC(C)=O)C(OC(C)=O)C1OC(C)=O.CCP(CC)CC.[Au+] (stereo not drawn) [MMV688978, Auranofin, reference compound]: yes
CCOc1ccccc1NC(C)C(=O)Nc1cc(C(F)(F)F)ccc1N1CCOCC1 (stereo not drawn): no
CCCCN(CCCC)c1c(C#N)cc(S(=O)(=O)Nc2ccccc2)cc1C#N: yes
CNC(=O)C1Cc2ccccc2N1C(=O)Cc1ccc(F)cc1 (stereo not drawn): no

hey, is Giardia (16 uM) Mean % inhibition for this one >= 50%? Cc1nn(Cc2ccccc2)c(Cl)c1C(=O)NC1CCCCCC1
yes

hey, is Giardia (16 uM) Mean % inhibition for this one >= 50%? C[C@H]1COc2c(N3CCN(C)CC3)c(F)cc3c(=O)c(C(=O)O)cn1c23
yes
